# Target under test: T1, TNFR1 (Homo sapiens, UniProt P19438)
# T1 chain: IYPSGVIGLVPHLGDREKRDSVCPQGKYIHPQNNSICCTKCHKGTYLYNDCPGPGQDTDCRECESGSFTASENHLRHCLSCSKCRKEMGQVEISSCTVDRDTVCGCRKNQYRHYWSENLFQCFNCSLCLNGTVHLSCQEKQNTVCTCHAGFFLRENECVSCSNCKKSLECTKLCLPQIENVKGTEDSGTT
# Protocol text: yeast display SC50
Provide the reported apparent Kd (screen) of each item.
Show the value, then the unit it is measured in.

Name the recorded apparent Kd (screen) for I21D (designed binder) SMEEEVEKAAKEYEKKKKEADEKHLEKLKAKDKEAAERFLKELEEAAKEYAKDEAKTMSEEEAKRRAKKYKEKVLLSELSEEEQKEIKEAEEKLVRTILKYVEEAAK .
10.4 nM

Also E14A (designed binder) SMEEEVEKAAKEYAKKKKEAIEKHLEKLKAKDKEAAERFLKELEEAAKEYAKDEAKTMSEEEAKRRAKKYKEKVLLSELSEEEQKEIKEAEEKLVRTILKYVEEAAK , if possible.
3 nM

Next record, please: K69N (designed binder) SMEEEVEKAAKEYEKKKKEAIEKHLEKLKAKDKEAAERFLKELEEAAKEYAKDEAKTMSEEEAKRRAKNYKEKVLLSELSEEEQKEIKEAEEKLVRTILKYVEEAAK
2.48 nM

Try S77C (designed binder) SMEEEVEKAAKEYEKKKKEAIEKHLEKLKAKDKEAAERFLKELEEAAKEYAKDEAKTMSEEEAKRRAKKYKEKVLLCELSEEEQKEIKEAEEKLVRTILKYVEEAAK next.
1.54 nM

Then this binder: L40Q (designed binder) SMEEEVEKAAKEYEKKKKEAIEKHLEKLKAKDKEAAERFQKELEEAAKEYAKDEAKTMSEEEAKRRAKKYKEKVLLSELSEEEQKEIKEAEEKLVRTILKYVEEAAK
0.49 nM

// next record Y101H (designed binder) SMEEEVEKAAKEYEKKKKEAIEKHLEKLKAKDKEAAERFLKELEEAAKEYAKDEAKTMSEEEAKRRAKKYKEKVLLSELSEEEQKEIKEAEEKLVRTILKHVEEAAK
0.49 nM

Another binder: L94K (designed binder) SMEEEVEKAAKEYEKKKKEAIEKHLEKLKAKDKEAAERFLKELEEAAKEYAKDEAKTMSEEEAKRRAKKYKEKVLLSELSEEEQKEIKEAEEKKVRTILKYVEEAAK
1.4 nM

And then Y101K (designed binder) SMEEEVEKAAKEYEKKKKEAIEKHLEKLKAKDKEAAERFLKELEEAAKEYAKDEAKTMSEEEAKRRAKKYKEKVLLSELSEEEQKEIKEAEEKLVRTILKKVEEAAK , what is it?
0.446 nM

And then L76E (designed binder) SMEEEVEKAAKEYEKKKKEAIEKHLEKLKAKDKEAAERFLKELEEAAKEYAKDEAKTMSEEEAKRRAKKYKEKVLESELSEEEQKEIKEAEEKLVRTILKYVEEAAK , what is it?
2.48 nM

Do the same for E91V (designed binder) SMEEEVEKAAKEYEKKKKEAIEKHLEKLKAKDKEAAERFLKELEEAAKEYAKDEAKTMSEEEAKRRAKKYKEKVLLSELSEEEQKEIKEAVEKLVRTILKYVEEAAK please
7.07 nM

Could you do the same for L79K (designed binder) SMEEEVEKAAKEYEKKKKEAIEKHLEKLKAKDKEAAERFLKELEEAAKEYAKDEAKTMSEEEAKRRAKKYKEKVLLSEKSEEEQKEIKEAEEKLVRTILKYVEEAAK , please?
0.304 nM

For A10T (designed binder) SMEEEVEKATKEYEKKKKEAIEKHLEKLKAKDKEAAERFLKELEEAAKEYAKDEAKTMSEEEAKRRAKKYKEKVLLSELSEEEQKEIKEAEEKLVRTILKYVEEAAK then?
0.446 nM

What about this binder? E3K (designed binder) SMKEEVEKAAKEYEKKKKEAIEKHLEKLKAKDKEAAERFLKELEEAAKEYAKDEAKTMSEEEAKRRAKKYKEKVLLSELSEEEQKEIKEAEEKLVRTILKYVEEAAK
0.653 nM

Then L43F (designed binder) SMEEEVEKAAKEYEKKKKEAIEKHLEKLKAKDKEAAERFLKEFEEAAKEYAKDEAKTMSEEEAKRRAKKYKEKVLLSELSEEEQKEIKEAEEKLVRTILKYVEEAAK ?
13.8 nM

// same read-out, input: L43K (designed binder) SMEEEVEKAAKEYEKKKKEAIEKHLEKLKAKDKEAAERFLKEKEEAAKEYAKDEAKTMSEEEAKRRAKKYKEKVLLSELSEEEQKEIKEAEEKLVRTILKYVEEAAK
0.869 nM

How about this binder: K85W (designed binder) SMEEEVEKAAKEYEKKKKEAIEKHLEKLKAKDKEAAERFLKELEEAAKEYAKDEAKTMSEEEAKRRAKKYKEKVLLSELSEEEQWEIKEAEEKLVRTILKYVEEAAK
0.446 nM
